Below, IC50 values reported for BTK (Homo sapiens, UniProt Q06187) across several publications.

Smiles	IC50
N#Cc1c(N)ncnc1N1CCC[C@@H](NC(=O)[C@H](Nc2cc(F)cc(Cl)c2)C2CC2)C1	1000 to 10000 nM

Report IC50 from BTK (Homo sapiens, UniProt Q06187) testing of "COc1ccc2c(N)c(C(N)=O)nnc2c1-c1ccc2cn[nH]c2c1" 25.1 nM

Report IC50 from BTK (Homo sapiens, UniProt Q06187) testing of "Cc1c(-c2ccc(Oc3cccc(F)c3)cc2)c2c(N)ncnc2n1[C@@H]1CCCN(C(=O)/C=C/CN(C)C2CC2)C1" < 100 nM

Report IC50 from BTK (Homo sapiens, UniProt Q06187) testing of "Cn1cc(-c2cnc3[nH]cc(C(=O)c4cccc(NS(=O)(=O)c5cccc(F)c5)c4)c3c2)cn1" ≤ 10000 nM

====

pIC50: −log10 of the molar value.
Below, pIC50 values reported for BTK (Homo sapiens, UniProt Q06187) across several publications.

Check out these entries, answers already filled in.
Compound	pIC50
Cn1cc(-c2cn3nccc3c(N3CCC(CN4CCN(CC5CCC5)CC4=O)CC3)n2)cn1	6.00 to 8.00
C=CC(=O)N1CC[C@]2(C1)C[C@H](n1c(NC(=O)c3ccc(-c4cccnc4)s3)nc3ccccc31)C2	8.28
O=C(CNc1cccc(-c2nnco2)c1)N[C@@H]1CCCN(c2ncnc3[nH]ccc23)C1	5.00 to 6.00
CN(C/C=C/C(=O)N1CC[C@@H](n2c(C(F)F)c(-c3ccc(Oc4ccccc4)cc3)c3c(N)ncnc32)C1)C1CC1	> 7.00
C=CC(=O)N1CCC[C@@H](Nc2nc(Nc3cnn(CC)c3)nc3ccsc23)C1	≥ 7.30

Report pIC50 from BTK (Homo sapiens, UniProt Q06187) testing of "C=CC(=O)Nc1cccc(Oc2ncnc3[nH]c(-c4ccc(N5CCN(C)CC5)c(F)c4)cc23)c1" > 7.00

Report pIC50 from BTK (Homo sapiens, UniProt Q06187) testing of "Cc1ccc2c(N)c(C(N)=O)nnc2c1-c1ccc2c(C3CC3)n[nH]c2c1" 6.30

====

Below, IC50 values reported for BTK (Homo sapiens) across several publications.

Report IC50 from BTK (Homo sapiens) testing of CC1C(Nc2ncnc3[nH]ccc23)CCCN1C(=O)CNc1ccccc1S(=O)(=O)c1ccccc1 (stereo not shown) < 100 nM

Report IC50 from BTK (Homo sapiens) testing of "CC#CC(=O)N1CCC[C@H]1c1nc(-c2ccc(C(=O)Nc3cc(C(F)(F)F)ccn3)c(OC)c2)c2c(N)nccn12" 2.5 nM

Report IC50 from BTK (Homo sapiens) testing of "Cc1cnc(-c2ccc(-c3ccc(NC(=O)Nc4c(F)cccc4F)cc3F)c3c2C(=O)NC3)[nH]1" 1 nM

Report IC50 from BTK (Homo sapiens) testing of "CC#CC(=O)N1CCC[C@@H](Nc2cc(CN3CCOCC3)cc(Nc3ncc(C)s3)n2)C1" > 200 nM

====

Below, IC50 values reported for BTK (Homo sapiens, UniProt Q06187) across several publications.

Check out these entries, answers already filled in.
Molecule	Recorded metric	Result
Nc1ncnc(N2CCC[C@@H](NC(=O)CNc3cc(Cl)cc(Cl)c3)C2)c1Cl	IC50	100 to 999 nM
Cn1nc(C(C)(C)C)cc1NCC(=O)NC1CCCN(c2ncnc3[nH]ccc23)C1 (centres unmarked)	IC50	1000 to 10000 nM
CN(C)C(=O)c1cccc(NCC(=O)NC2CCCN(c3ncnc4[nH]ccc34)C2)c1 (centres unmarked)	IC50	1000 to 10000 nM
O=C(CNc1cc(Cl)ccc1Cl)N[C@@H]1CCCN(c2ncnc3[nH]ccc23)C1	IC50	100 to 999 nM
Cn1cc(-c2cn3ncnc3c(N3CCC(CNC(=O)c4nnn(C(C)(C)C)n4)CC3)n2)cn1	IC50	1 to 10 nM

Report IC50 from BTK (Homo sapiens, UniProt Q06187) testing of "C=CC(=O)N1CCC[C@H]1c1nc(-c2ccc(OCc3ccccn3)cc2)c2c(N)nccn12" 100 to 300 nM

Report IC50 from BTK (Homo sapiens, UniProt Q06187) testing of "CN(C)C/C=C/C(=O)N(C)c1cccc(-n2c(=O)n(-c3ccc(C(=O)Nc4cncc(F)c4)cc3)c3c(N)ncnc32)c1" 100 to 1000 nM

Report IC50 from BTK (Homo sapiens, UniProt Q06187) testing of O=C([C@H](Nc1cc(F)cc(Cl)c1)C1CC1)N1CCCCC12CCCN(c1ncnc3[nH]ccc13)C2 (some centres unmarked) 1000 to 10000 nM

====

Below, IC50 values reported for UniProtKB Q06187 across several publications.

Compound	IC50
CC#CC(=O)N1C2CN[C@@H](C2)C1c1nc(-c2ccc(C(=O)Nc3cc(C)ccn3)cc2)c2c(N)nccn12 (some centres unmarked)	69 nM
Cn1cc(-c2cnc3[nH]cc(C(=O)c4c(F)ccc(NS(=O)(=O)c5cccc(OC(F)F)c5)c4F)c3c2)cn1	≤ 10000 nM
COc1ccc(-c2nn(C3Cc4ccccc4C3)c3ncnc(N)c23)cc1O	84.3 nM
Cc1cc(-c2ccnc(Nc3cnn(C(C)C)c3)n2)ccc1CNC(=O)c1cnn(C(C)(C)C)c1	< 10 nM
CN(C(=O)/C=C/CN(C)C1CC1)c1cccc(-n2c(=O)n(-c3ccc(Oc4ccccc4)cc3)c3c(N)ncnc32)c1	< 100 nM
CC1C(Nc2ncnc3[nH]ccc23)CCCN1C(=O)CNc1cc(F)cc(Cl)c1 (centres unmarked)	< 100 nM

Supply IC50 value. Item: "C[C@H]1CNC(=O)c2cnn3c(N)c(-c4ccc(N)cc4)c(nc23)NCc2cc(F)cnc2O1" 3.6 nM

Supply IC50 value. Item: "C=CC(=O)Nc1cccc(-c2cc(-c3ccc(C(=O)Nc4cc(C(F)(F)F)ccn4)cc3F)cc3cncnc23)c1" < 100 nM

Supply IC50 value. Item: "C=CC(=O)N1CCN(c2ccc(C(N)=O)c(-c3ccc(Oc4ccccc4)nc3)n2)CC1" 500 to 1000 nM

====

Below, IC50 values reported for BTK (Homo sapiens, UniProt Q06187) across several publications.
Recorded metric: IC50 (nM)

Smiles	IC50 (nM)
Cc1ncc(COc2cc(F)cc(Oc3ccc(-c4nn([C@@H]5CCCN(C#N)C5)c5ncnc(N)c45)cc3)c2)cn1	11
Cn1ncc2cc(-c3c(C(F)(F)F)ccc4c(N)c(C(N)=O)nnc34)ccc21	79.4
NC(=O)c1nnc2c(-c3ccc4nc(CC5CCCCC5)[nH]c4c3)cccc2c1N	79.4

[a] C=CC(=O)N1CCC[C@@H](n2nc(/C=C/c3cccc(Cl)c3)c3c(N)ncnc32)C1
[b] CN(C/C=C/C(=O)N1CC2(CC2)C[C@H]1c1nc(-c2ccc(C(=O)Nc3ccccn3)cc2)c2c(N)nccn12)C1CC1
# argmax over IC50 for candidates a and b // caller expects the label of the chosen entry b
(b: 81 nM, a: 6.9 nM)

[a] Nc1c(C(=O)c2cc3ccccc3[nH]2)cnn1-c1ccc(Oc2ccccc2)nc1
[b] C=CC(=O)N1CC[C@]2(C1)C[C@H](n1c(NC(=O)c3ccc(-c4ccccn4)s3)nc3ccccc31)C2
[c] C=CC(=O)Nc1cccc(-c2cc(CN3CCN(C(=O)C4CC4)CC3)cc(Nc3ncc(C)s3)n2)c1
[d] C=CC(=O)N1CCC[C@@H](n2nc(-c3ccc(C(=O)Nc4ccccn4)cc3F)c3c(N)ncc(C#N)c32)C1
List the 4 entries from lowest IC50 to highest IC50 value. Answer format: list of labels, ordered as asked. d, c, b, a
(d: 0.5 nM, c: 6.7 nM, b: 25.8 nM, a: 869 nM)

====

pIC50: −log10 of the molar value.
Below, pIC50 values reported for BTK (Homo sapiens, UniProt Q06187) across several publications.

Check out these entries, answers already filled in.
Molecule	pIC50
Cc1cc(-c2ccnc(N)n2)ccc1CNC(=O)c1nc2c(s1)CCNCC2	5.00 to 6.00
Cc1cc(-c2cc(Nc3cc4n(n3)CCN(C)C4)ncn2)ccc1CNC(=O)N1CC[C@@H](C(C)(C)C)C1	> 8.00
Cc1cc(NCC(=O)N[C@@H]2CCCN(c3ncnc4[nH]ccc34)C2)cc(OC(F)(F)F)c1	> 7.00

Supply pIC50 value. Item: "Cc1c2c(n3c1C(=O)N(c1nccc(-c4cc(Nc5ccc(N6CCN(C7COC7)C[C@@H]6C)cn5)c(=O)n(C)c4)c1CO)CC3)CC(C)(C)C2" 9.85

====

Below, IC50 values reported for BTK (Homo sapiens, UniProt Q06187) across several publications.

Check out these entries, answers already filled in.
Molecule	Result
C=CC(=O)N1CCC[C@H]1Cn1nc(-c2ccc(Oc3cccc(C)c3)cc2)c2cncnc21	< 0.1 µM
Cc1c(-c2ccc(OCc3cnn[nH]3)cc2)c2c(N)ncnc2n1[C@@H]1CCN(C(=O)/C=C/CN(C)C2CC2)C1	< 0.1 µM
C=CC(=O)N1CC(n2nc(-c3ccc(Oc4ccccc4)cc3)c3cncnc32)C1	0.1 to 0.5 µM
C=CC(=O)N1CC(CNc2nc(Nc3cnn(C)c3)nc3ccsc23)C1	≤ 0.05 µM
C=CC(=O)N[C@H]1CC[C@@H](Nc2nc(Nc3ccc(N4CCN(C)CC4)cc3)nc3ccsc23)CC1	≤ 0.05 µM

Supply IC50 value. Item: Cc1cc(-c2cc(Nc3cc4n(n3)CC(C)N(C)C4)ncn2)ccc1CNC(=O)c1cnn(C(C)(C)C)c1 (stereo not drawn) < 0.01 µM

Supply IC50 value. Item: C=CC(=O)N1CCCCC(Nc2nccc(Nc3ncc(C(=O)Nc4c(C)cccc4Cl)s3)n2)C1 (stereo not drawn) 0.00552 µM

Supply IC50 value. Item: "C=CC(=O)N1CCC[C@@H](c2c(F)c(F)c(C(N)=O)c3[nH]c(C)c(Cl)c23)C1" < 0.01 µM

Supply IC50 value. Item: C=CC(=O)N1CCC(c2cc(-c3ccc(Oc4ccccc4)cc3)c(N)c3cncnc23)C1 (stereo not drawn) > 0.1 µM

Supply IC50 value. Item: "Cc1c(NC(=O)c2ccc(C(C)(C)C)cc2)cccc1-c1cc(NC(=O)NCCCN(C)C)c2nccn2c1" 0.018 µM

Supply IC50 value. Item: "COc1cc(-c2nn(-c3ccc(N(C)C(=O)/C=C/CN(C)C)cc3)c3ncnc(N)c23)ccc1C" < 0.1 µM
